# PROCEDURE_TEXT: chemical genetic growth profiling, strain panel (AID 1159580);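 further: tested at 20 µM; growth read once vehicle control cultures reached saturation at 30 °C; 1 = growth at the plate median or of vehicle wells; lower values mean less growth of the strain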
# TEST_CONDITIONS: S. cerevisiae deletion strains, growth OD, locus YAL021C, strain ccr4, stronger effect = lower value
Out of some 5,500 compounds screened, about 2,000 (36%) were called active. About 18% were inconclusive and are not listed. This is one part of the list.
VALUE_KIND: normalized growth

# MOLECULE, VALUE_KIND, MEASURED_NUMBER
rows = [
    ("CC(=O)O[C@@H]1CC2C(C)(C)C(=O)C3OC3[C@]2(C)C2CC[C@@]3(C)[C@H](c4ccoc4)OC(=O)C4OC43[C@@]21C (stereo partly specified)", "normalized growth", 0.988),
    ("NC(C(=O)O)C(O)C(=O)O (stereo unspecified)", "normalized growth", 0.941),
    ("O=C(O)COc1ccc(Cl)cc1Cl", "normalized growth", 0.997),
    ("O=c1oc2ccccc2cc1O", "normalized growth", 0.986),
    ("O=c1cccc2n1CC1CC2CN2CCCC[C@@H]12 (stereo partly specified)", "normalized growth", 0.999),
    ("CC(=O)O[C@H]1C[C@@H](OC(C)=O)C(C)(C)C2C[C@@H](O)[C@]3(C)C(CC[C@@]4(C)[C@H](c5ccoc5)OC(=O)[C@H]5O[C@]543)[C@]21C (stereo partly specified)", "normalized growth", 1.05),
    ("CC(=O)O[C@@H]1CC2C(C)(C)[C@@H](O)CC[C@]2(C)C2CC[C@@]3(C)[C@H](c4ccoc4)OC(=O)[C@H]4O[C@]43[C@@]21C (stereo partly specified)", "normalized growth", 1.02),
    ("Nc1nc(F)nc2c1ncn2[C@@H]1O[C@H](COP(=O)(O)O)[C@@H](O)[C@@H]1O", "normalized growth", 0.989),
    ("Fc1ccc([C@@H]2CCNC[C@H]2COc2ccc3c(c2)OCO3)cc1", "normalized growth", 1),
    ("O=C(O)C(O)C(O)C(=O)O (stereo unspecified)", "normalized growth", 1),
    ("N[C@@H](C(=O)O)[C@@H](O)[C@H](O)[C@H](O)CO", "normalized growth", 1.01),
]

###

# PROCEDURE_TEXT: chemical genetic growth profiling, strain panel (AID 1159580);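 further: tested at 20 µM; growth read once vehicle control cultures reached saturation at 30 °C; 1 = growth at the plate median or of vehicle wells; lower values mean less growth of the strain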
# TEST_CONDITIONS: S. cerevisiae deletion strains, growth OD, locus YGL248W, strain PDE1, stronger effect = lower value
Among all 5,500 compounds or so, about 2,000 (36%) were called active. About 18% were inconclusive and are not listed. The list shows a part of the results.

# MOLECULE, normalized growth
data = [
    ("COC(=O)[C@@H]1OC(=O)C2OC23[C@@]1(C)CCC1[C@]2(C)C(C[C@@H](O)[C@]13C)C(C)(C)[C@H](OC(C)=O)C[C@@H]2OC(C)=O (some centres not stated)", 1.01),
    ("O=c1[nH]c(=O)n(C2C[C@H](O)[C@@H](CO)O2)cc1C(F)(F)F (some centres not stated)", 0.978),
    ("CC1[C@H](C)OC(=O)CC(O)CC(O)CC(O)CCC(O)C(O)C[C@]2(O)CC(O)C(C(=O)O)C(CC(OC3O[C@H](C)[C@@H](O)[C@H](N)[C@@H]3O)/C=C/C=C/C=C/C=C/CC/C=C/C=C/[C@H](C)[C@H]1O)O2 (some centres not stated)", 0.646),
    ("CC(C)c1nc(N(C)S(C)(=O)=O)nc(-c2ccc(F)cc2)c1/C=C/[C@@H](O)C[C@@H](O)CC(=O)O", 0.993),
    ("CC(=O)O[C@H]1C[C@@]2(C)[C@@H](C[C@@H](O)C3[C@]2(C)CC[C@H]2[C@H](C)[C@H](O)CC[C@]32C)/C1=C(/CCC=C(C)C)C(=O)O (some centres not stated)", 1.01),
    ("COC1C=CC23c4cc5c(cc4CN(CC2O)[C@@H]3C1)OCO5 (some centres not stated)", 1.04),
    ("Oc1c(Cl)cc(Cl)c(Cl)c1Cc1c(O)c(Cl)cc(Cl)c1Cl", 0.0447),
]

Values compiled from PubChem BioAssay AID1159580.
